# Tested on: mouse L1210 leukemia
# METHOD_NOTES: antitumor activity against mouse L1210 leukemia, life prolongation rate
# Format: in vivo
# CONDITION_LABEL: dose 1 mg/Kg, once a day for five days starting 24 hours after tumor cell injection; control survival day = 100%
# Description: These HB-6 substances were tested for their antitumor activity in terms of mouse L1210 leukemia. […] The result is summarized in Table 1, in which the antitumor activity of each drug is expressed as life prolongation rate, taking the survival day for the control group as 100%. […]
So I've got a bunch of molecules here, and I need their Life Prolongation Rate values.
Give your result in % as a bare value.

Looking up HBW-21(B): NCS-apoprotein and aclacinomycin A bound together, molar ratio 1:5 (conjugate, UniProt P0A3R9 35-147, looked up, complex with aclacinomycin A, 1:5) Neocarzinostatin: AAPTATVTPSSGLSDGTVVKVAGAGLQAGTAYDVGQCAWVDTGVLACNPADFSSVTADANGSASTSLTVRRSFEGFLFDGTRWGTVDCTTAACQVGLSDAAGNGPEGVAISFN , I found its Life Prolongation Rate recorded as 162

Looking up HB-22(B): NCS-apoprotein and γ-rhodomycin Y bound together, molar ratio 1:5 (conjugate, UniProt P0A3R9 35-147, looked up, γ-rhodomycin Y conjugate, 1:5) Neocarzinostatin: AAPTATVTPSSGLSDGTVVKVAGAGLQAGTAYDVGQCAWVDTGVLACNPADFSSVTADANGSASTSLTVRRSFEGFLFDGTRWGTVDCTTAACQVGLSDAAGNGPEGVAISFN , I found its Life Prolongation Rate recorded as 150

Looking up HBW-20(B): NCS-apoprotein and adriamycin bound together, molar ratio 1:5 (conjugate, UniProt P0A3R9 35-147, looked up, adriamycin conjugate, 1:5) Neocarzinostatin: AAPTATVTPSSGLSDGTVVKVAGAGLQAGTAYDVGQCAWVDTGVLACNPADFSSVTADANGSASTSLTVRRSFEGFLFDGTRWGTVDCTTAACQVGLSDAAGNGPEGVAISFN , I found its Life Prolongation Rate recorded as 245
